MEASUREMENT_KIND: melting point

Record excerpt, results attached:
MOLECULE: CON=Cc1sc(-c2ccc(O)cc2C)c(C)c1-c1ccc(O)c(F)c1 [Example 23]
melting point: 172 to 177 °C

MOLECULE: Cc1c(-c2ccc(O)cc2)sc(C=O)c1-c1ccc(O)c(C=O)c1 [Example 6]
melting point: 228 to 230 °C

MOLECULE: Cc1c(-c2ccc(O)c(Cl)c2)sc(C=O)c1-c1ccc(O)c(F)c1 [Example 14]
melting point: 227 to 229 °C

What the record says about Cc1c(-c2ccc(O)c(F)c2)sc(C=O)c1-c1ccc(O)c(Cl)c1 [Example 10] : melting point is 252 to 254 °C

What the record says about Cc1cc(O)ccc1-c1c(C=O)sc(-c2ccc(O)cc2)c1C [Example 3] : melting point is 244 to 247 °C

What the record says about Cc1c(-c2ccc(O)cc2)sc(C#N)c1-c1cccc(O)c1 [Example 17] : melting point is 220 to 222 °C

====

SYSTEM_UNDER_TEST: human ERβ (Homo sapiens)
Construct: M214-Q530 of human ERβ; Flag (C)
Sequence (Q92731 214-530): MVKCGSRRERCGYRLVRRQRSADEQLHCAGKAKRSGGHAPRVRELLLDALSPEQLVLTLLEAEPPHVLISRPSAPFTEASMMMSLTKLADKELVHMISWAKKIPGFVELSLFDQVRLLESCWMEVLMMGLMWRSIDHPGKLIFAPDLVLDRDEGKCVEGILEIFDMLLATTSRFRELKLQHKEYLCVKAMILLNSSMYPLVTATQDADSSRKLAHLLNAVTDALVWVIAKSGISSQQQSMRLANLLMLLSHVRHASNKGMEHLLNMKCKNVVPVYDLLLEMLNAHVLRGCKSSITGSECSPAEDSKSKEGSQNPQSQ
MEASUREMENT_PROTOCOL: Radioligand binding competition with [3H]-17β-estradiol, ERβ
REPORTED_CONDITIONS: human ERβ ligand binding domain extract, read-out: ER-β IC50
pIC50: −log10 of the molar value.
MEASUREMENT_KIND: pIC50

Record excerpt, results attached:
COMPOUND: CON=Cc1sc(-c2ccc(O)cc2)c(C)c1-c1ccc(O)cc1 [Example 20]
ENDPOINT_RESULT: 7.55
--
COMPOUND: Cc1c(-c2ccc(O)cc2)sc(C=O)c1-c1ccc(O)c(C=O)c1 [Example 6]
ENDPOINT_RESULT: 7.15
--
COMPOUND: Cc1c(-c2ccc(O)cc2)sc(C=O)c1-c1ccc(O)c(F)c1 [Example 5]
ENDPOINT_RESULT: 8.74
--
COMPOUND: Cc1c(-c2ccc(O)c(Cl)c2)sc(C=O)c1-c1ccc(O)c(F)c1 [Example 14]
ENDPOINT_RESULT: 7.80

I: Cc1c(-c2cccc(O)c2)sc(C=NO)c1-c1ccc(O)cc1 (mixture of isomers) [Example 21]
II: Cc1c(-c2ccc(O)cc2)sc(C=O)c1-c1ccc(O)c(Cl)c1 [Example 7]
INPUT: When their pIC50 values are compared, which is larger, I or II ? Output the label that corresponds to your choice.
OUTPUT: II

1: Cc1cc(O)ccc1-c1sc(C=O)c(-c2ccc(O)c(F)c2)c1C [Example 12]
2: Cc1c(-c2ccc(O)cc2)sc(C=O)c1-c1cccc(O)c1 [Example 1]
3: Cc1c(-c2ccc(O)cc2)sc(C#N)c1-c1ccc(O)cc1 [Example 19]
4: Cc1ccc(O)cc1-c1c(C=O)sc(-c2ccc(O)cc2)c1C [Example 4]
5: Cc1c(-c2ccc(O)cc2)sc(C=O)c1-c1ccc(O)cc1 [Example 15]
INPUT: Write the entries in order, lowest recorded pIC50 first. Please, when replying, give the labels in the order that was requested.
OUTPUT: 4, 2, 1, 3, 5

====

SYSTEM_UNDER_TEST: human ERα (Homo sapiens)
Construct: amino acids M250-V595 of human ERα; His (N); Flag (C)
Sequence (P03372 250-595): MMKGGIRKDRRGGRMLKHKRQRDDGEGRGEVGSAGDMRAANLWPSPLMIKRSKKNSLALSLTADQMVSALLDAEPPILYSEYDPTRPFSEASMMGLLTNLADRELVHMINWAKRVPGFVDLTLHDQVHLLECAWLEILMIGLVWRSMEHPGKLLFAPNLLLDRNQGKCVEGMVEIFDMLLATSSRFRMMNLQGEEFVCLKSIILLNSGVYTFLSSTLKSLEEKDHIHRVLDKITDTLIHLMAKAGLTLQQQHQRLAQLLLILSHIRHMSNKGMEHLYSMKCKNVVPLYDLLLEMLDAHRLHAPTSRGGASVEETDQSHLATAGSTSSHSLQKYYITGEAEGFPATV
MEASUREMENT_PROTOCOL: Radioligand binding competition with [3H]-17β-estradiol, ERα
REPORTED_CONDITIONS: human ERα ligand binding domain extract, read-out: ER-α IC50
MEASUREMENT_KIND: IC50 (µM)

I: Cc1c(-c2ccc(O)cc2)sc(C=NO)c1-c1ccc(O)cc1 (mixture of isomers) [Example 18]
II: Cc1c(-c2ccc(O)cc2)sc(C=O)c1-c1ccc(O)c(C=O)c1 [Example 6]
III: Cc1cc(O)ccc1-c1c(C=O)sc(-c2ccc(O)cc2)c1C [Example 3]
IV: Cc1c(-c2cccc(O)c2)sc(C=NO)c1-c1ccc(O)cc1 (mixture of isomers) [Example 21]
INPUT: With regard to IC50, arrange the entries in ascending order, please. Please, when replying, give the labels in the order that was requested.
OUTPUT: III, I, IV, II
